Catalogue of fold resistance (FR), strain A readings, one per entry.
Tested on: clinically isolated HIV strain A
Experiment: Antiviral spectrum, cellular assay (fold resistance), strain A
Format: cell-based
Settings: FR=EC50(mutant strain)/EC50(HIV-1 strain LAI)
readout-label: fold resistance (FR), strain A

INSERT INTO results (compound, readout_label, recorded_number) VALUES
  ('CC(C)CN(CC(O)C(Cc1ccccc1)NC(=O)OC1COC2OCCC12)S(=O)(=O)c1ccc2nc(NC(=O)CN(C)C)sc2c1 (mixture of isomers) [Compound 3]', 'fold resistance (FR), strain A', 0.4),
  ('CC(C)CN(C[C@@H](O)[C@H](Cc1ccccc1)NC(=O)O[C@H]1CO[C@H]2OCC[C@H]21)S(=O)(=O)c1ccc2nc(NC(=O)CN3CCCC3)sc2c1.Cl', 'fold resistance (FR), strain A', 0.2),
  ('CC(C)CN(C[C@@H](O)[C@H](Cc1ccccc1)NC(=O)O[C@H]1CCOC1)S(=O)(=O)c1ccc2nc(NC(=O)CN(C)C)sc2c1', 'fold resistance (FR), strain A', 5.0),
  ('CC(C)CN(C[C@@H](O)[C@H](Cc1ccccc1)NC(=O)O[C@H]1CCOC1)S(=O)(=O)c1ccc2nc(NC(=O)CN3CCNCC3)sc2c1', 'fold resistance (FR), strain A', 0.5),
  ('CC(=O)Nc1nc2ccc(S(=O)(=O)N(CC(C)C)CC(O)C(Cc3ccccc3)NC(=O)OC3COC4OCCC34)cc2s1 (mixture of isomers)', 'fold resistance (FR), strain A', 0.4),
  ('CC(C)CN(CC(O)C(Cc1ccccc1)NC(=O)OC1COC2OCCC12)S(=O)(=O)c1ccc2nc(NC(=O)CN3CCOCC3)sc2c1 (mixture of isomers)', 'fold resistance (FR), strain A', 0.4),
  ('Cc1cc(N)ccc1C(=O)NC(Cc1ccccc1)C(O)CN(CC(C)C)S(=O)(=O)c1ccc2nc(NC(=O)CN(C)C)sc2c1 (centres unmarked)', 'fold resistance (FR), strain A', 1.1),
  ('CCOC(=O)Nc1nc2ccc(S(=O)(=O)N(CC(C)C)CC(O)C(Cc3ccccc3)NC(=O)OC3COC4OCCC34)cc2s1 (centres unmarked)', 'fold resistance (FR), strain A', 0.3),
  ('CC(C)CN(C[C@@H](O)[C@H](Cc1ccccc1)NC(=O)O[C@H]1CCOC1)S(=O)(=O)c1ccc2nc(NC(=O)CN3CCN(C)CC3)sc2c1.O=C(O)C(F)(F)F', 'fold resistance (FR), strain A', 0.7),
  ('CC(C)CN(C[C@@H](O)[C@H](Cc1ccccc1)NC(=O)O[C@H]1CO[C@H]2OCC[C@H]21)S(=O)(=O)c1ccc2nc(NC(=O)CN3CCCC3)sc2c1.O=C(O)C(=O)O', 'fold resistance (FR), strain A', 0.3),
  ('CC(C)CN(C[C@@H](O)[C@H](Cc1ccccc1)NC(=O)O[C@H]1CO[C@H]2OCC[C@H]21)S(=O)(=O)c1ccc2nc(NCCN(C)C)sc2c1', 'fold resistance (FR), strain A', 0.2);

* * *

Test system: virus strain F (R13025)
Test: microbe, parasite or virus in culture
Format: cell-based, HIV
Conditions: Human immunodeficiency virus 1, MT4, read-out: HIV-AVE-MT4-MTT-R13025-2-002 pEC50, virus strain F (R13025), MT4 cells, MTT (converted)
Mark each entry rule met if its EC50 sits below 60 nM, and rule not met for all others.

INSERT INTO results (molecule, category_label) VALUES
  ('CC(C)CN(C[C@@H](O)[C@H](Cc1ccccc1)NC(=O)OCc1cncs1)S(=O)(=O)c1ccc2nc(NC(=O)C3CCC(=O)N3)sc2c1 (some centres unmarked)', 'rule met'),
  ('Cc1cccc(C)c1OCC(=O)N[C@@H](Cc1ccccc1)[C@H](O)CN(CC(C)C)S(=O)(=O)c1ccc2nc(NC(=O)c3cccnc3)sc2c1', 'rule not met'),
  ('CC(C)CN(C[C@@H](O)[C@H](Cc1ccccc1)NC(=O)O[C@H]1CO[C@H]2OCC[C@H]21)S(=O)(=O)c1ccc2nc(NCCN3CCCC3)sc2c1', 'rule met'),
  ('CC(C)CN(C[C@@H](O)[C@H](Cc1ccccc1)NC(=O)OCc1cncs1)S(=O)(=O)c1ccc2nc(NC(=O)c3ccc[nH]3)sc2c1', 'rule met'),
  ('CC(C)CN(C[C@@H](O)[C@H](Cc1ccccc1)NC(=O)OCc1cncs1)S(=O)(=O)c1ccc2nc(N(C)C(=O)c3cc[nH]c3)sc2c1', 'rule not met'),
  ('COC(=O)CCNc1nc2ccc(S(=O)(=O)N(CC(C)C)C[C@@H](O)[C@H](Cc3ccccc3)NC(=O)OC(C)(C)C)cc2s1', 'rule not met'),
  ('CC(=O)Nc1nc2ccc(S(=O)(=O)N(CC(C)C)C[C@@H](O)[C@H](Cc3ccccc3)NC(=O)COc3c(C)cc(C)cc3C)cc2s1', 'rule met'),
  ('Cc1cccc(C)c1OCC(=O)N[C@@H](Cc1ccccc1)[C@H](O)CN(CC(C)C)S(=O)(=O)c1ccc2nc(NC(=O)c3ccncc3)sc2c1', 'rule met'),
  ('CCN1CCCC1CNc1nc2ccc(S(=O)(=O)N(CC(C)C)C[C@@H](O)[C@H](Cc3ccccc3)NC(=O)O[C@H]3CO[C@H]4OCC[C@H]43)cc2s1 (some centres unmarked)', 'rule met'),
  ('COc1cc(C(=O)Nc2nc3ccc(S(=O)(=O)N(CC(C)C)C[C@@H](O)[C@H](Cc4ccccc4)NC(=O)COc4c(C)cccc4C)cc3s2)cc(OC)c1O', 'rule met'),
  ('CC(=O)Nc1nc2ccc(S(=O)(=O)N(CC(C)C)C[C@@H](O)[C@H](Cc3ccccc3)NC(=O)OCc3cncs3)cc2s1', 'rule met'),
  ('CC(C)CN(C[C@@H](O)[C@H](Cc1ccccc1)NC(=O)OCc1cncs1)S(=O)(=O)c1ccc2nc(N(C)C(=O)c3cccnc3)sc2c1', 'rule met'),
  ('CC(C)CN(C[C@@H](O)[C@H](Cc1ccccc1)NC(=O)OCc1cncs1)S(=O)(=O)c1ccc2nc(NC(=O)CN3CCOCC3)sc2c1', 'rule met'),
  ('CC(=O)NCCNc1nc2ccc(S(=O)(=O)N(CC(C)C)C[C@@H](O)[C@H](Cc3ccccc3)NC(=O)OC(C)(C)C)cc2s1', 'rule not met'),
  ('CC(C)CN(C[C@@H](O)[C@H](Cc1ccccc1)NC(=O)O[C@H]1CO[C@H]2OCC[C@H]21)S(=O)(=O)c1ccc2nc(NCCN)sc2c1', 'rule met'),
  ('CC(C)CN(C[C@@H](O)[C@H](Cc1ccccc1)NC(=O)O[C@H]1CO[C@H]2OCC[C@H]21)S(=O)(=O)c1ccc2nc(N(CCN3CCCC3)C(=O)OC3CO[C@@H]4OCO[C@H]34)sc2c1 (some centres unmarked)', 'rule met'),
  ('CC(C)CN(C[C@@H](O)[C@H](Cc1ccccc1)NC(=O)OCc1cncs1)S(=O)(=O)c1ccc2nc(NC(=O)C3CCCN(C)C3)sc2c1 (some centres unmarked)', 'rule met'),
  ('CC(C)CN(C[C@@H](O)[C@H](Cc1ccccc1)NC(=O)O[C@H]1CO[C@H]2OCC[C@H]21)S(=O)(=O)c1ccc2nc(N(C)CCCN3CCCC3)sc2c1', 'rule not met'),
  ('CC(C)CN(C[C@@H](O)[C@H](Cc1ccccc1)NC(=O)OCc1cncs1)S(=O)(=O)c1ccc2nc(C(C)C(=O)CCCC(=O)O)sc2c1 (some centres unmarked)', 'rule not met'),
  ('CC(C)CN(C[C@@H](O)[C@H](Cc1ccccc1)NC(=O)OCc1cncs1)S(=O)(=O)c1ccc2nc(NC(=O)OC(C)C)sc2c1', 'rule met'),
  ('CC(C)CN(C[C@@H](O)[C@H](Cc1ccccc1)NC(=O)OC1CCSC1)S(=O)(=O)c1ccc2nc(NCCN(C)C)sc2c1 (some centres unmarked)', 'rule not met'),
  ('CC(C)CN(C[C@@H](O)[C@H](Cc1ccccc1)NC(=O)C(NC(=O)CNCc1cccc(F)c1)C(C)(C)C)S(=O)(=O)c1ccc2nc(NCCN3CCCC3)sc2c1 (some centres unmarked)', 'rule not met'),
  ('Cc1cccc(C)c1OCC(=O)N[C@@H](Cc1ccccc1)[C@H](O)CN(CC(C)C)S(=O)(=O)c1ccc2nc(NC(=O)c3cc(O)cc(O)c3)sc2c1', 'rule met');

* * *

Tested on: clinically isolated HIV strain R
Assay: Antiviral spectrum, cellular assay (fold resistance), strain R
Type: cell-based
Settings: FR=EC50(mutant strain)/EC50(HIV-1 strain LAI)
// NB: equality with 0.5 counts as 0; only fold resistance (FR), strain R strictly below is 1

INSERT INTO results (compound, category_label) VALUES
  ('Cc1cccc(C)c1OCC(=O)N[C@@H](Cc1ccccc1)[C@H](O)CN(CC(C)C)S(=O)(=O)c1ccc2nc(NC(=O)CN3CCCC3)sc2c1 [Compound 37]', 0),
  ('Cc1cc(N)ccc1C(=O)NC(Cc1ccccc1)C(O)CN(CC(C)C)S(=O)(=O)c1ccc2nc(NC(=O)CN(C)C)sc2c1 (centres unmarked) [Compound 43]', 0),
  ('CC(C)CN(C[C@@H](O)[C@H](Cc1ccccc1)NC(=O)O[C@H]1CO[C@H]2OCC[C@H]21)S(=O)(=O)c1ccc2nc(NC(=O)CN3CCCC3)sc2c1.Cl [Compound 14]', 1),
  ('CC(C)CN(C[C@@H](O)[C@H](Cc1ccccc1)NC(=O)O[C@H]1CCOC1)S(=O)(=O)c1ccc2nc(NC(=O)CN(C)C)sc2c1 [Compound 34]', 0),
  ('CC(C)CN(C[C@@H](O)[C@H](Cc1ccccc1)NC(=O)O[C@H]1CO[C@H]2OCC[C@H]21)S(=O)(=O)c1ccc2nc(NCCN(C)C)sc2c1 [Compound 16]', 1),
  ('CC(=O)Nc1nc2ccc(S(=O)(=O)N(CC(C)C)CC(O)C(Cc3ccccc3)NC(=O)OC3COC4OCCC34)cc2s1 (mixture of isomers) [Compound 1]', 0),
  ('CC(C)CN(CC(O)C(Cc1ccccc1)NC(=O)OC1COC2OCCC12)S(=O)(=O)c1ccc2nc(NC(=O)CN3CCCC3)sc2c1 (centres unmarked) [Compound 12]', 1),
  ('CC(C)CN(C[C@@H](O)[C@H](Cc1ccccc1)NC(=O)O[C@H]1CCOC1)S(=O)(=O)c1ccc2nc(NC(=O)CN3CCNCC3)sc2c1 [Compound 35]', 0),
  ('CC(C)CN(C[C@@H](O)[C@H](Cc1ccccc1)NC(=O)O[C@H]1CO[C@H]2OCC[C@H]21)S(=O)(=O)c1ccc2nc(NC(=O)CN3CCCC3)sc2c1.O=C(O)/C=C/C(=O)O [Compound 13]', 1),
  ('CC(=O)N(C)c1nc2ccc(S(=O)(=O)N(CC(C)C)CC(O)C(Cc3ccccc3)NC(=O)OC3COC4OCCC34)cc2s1 (mixture of isomers) [Compound 9]', 0),
  ('CC(C)CN(C[C@@H](O)[C@H](Cc1ccccc1)NC(=O)O[C@H]1CO[C@H]2OCC[C@H]21)S(=O)(=O)c1ccc2nc(NC(=O)CN3CCCC3)sc2c1.O=C(O)C(=O)O [Compound 15]', 1),
  ('CC(C)CN(C[C@@H](O)[C@H](Cc1ccccc1)NC(=O)O[C@H]1CCOC1)S(=O)(=O)c1ccc2nc(NC(=O)CN3CCN(C)CC3)sc2c1.O=C(O)C(F)(F)F [Compound 64]', 0),
  ('CC(C)CN(CC(O)C(Cc1ccccc1)NC(=O)OC1COC2OCCC12)S(=O)(=O)c1ccc2nc(NC(=O)CN3CCCC3)sc2c1 (mixture of isomers) [Compound 7]', 1),
  ('CC(C)CN(CC(O)C(Cc1ccccc1)NC(=O)OC1COC2OCCC12)S(=O)(=O)c1ccc2nc(NC(=O)CN3CCOCC3)sc2c1 (mixture of isomers) [Compound 10]', 1),
  ('CCOC(=O)Nc1nc2ccc(S(=O)(=O)N(CC(C)C)CC(O)C(Cc3ccccc3)NC(=O)OC3COC4OCCC34)cc2s1 (centres unmarked) [Compound 2]', 1);
